All values here come from PubChem BioAssay (EPA / NIEHS).

Read-out: Protein phosphatase 2A (PPP2R4), PTPA (gene 5524)
Experiment: LTEA_HepaRG_PPP2R4: Life Technologies and Expression Analysis (LTEA) Assay for Protein phosphatase 2A (PPP2R4) using HepaRG (AID 2283522)
Details: mRNA level, 48 h; actives raise or lower the signal
Active and inactive are the calls of the source. How the source made its calls: active means hit-call score of the fitted dose curve at least 0.9, where 1 is the maximum; inactive means score below 0.9.
MEASUREMENT_KIND: outcome

C#CCN1C(=O)COc2cc(F)c(N3C(=O)C4=C(CCCC4)C3=O)cc21    inactive
O=C1c2ccccc2C(=O)N1SC(Cl)(Cl)Cl    inactive
CNC(=O)CSP(=S)(OC)OC    inactive

---

Read-out: serum amyloid A (SAA), SAA1 (gene 6288)
Assay: BSK_CASM3C_SAA: BioMAP Diversity Plus: CASM3C Assay for serum amyloid A (SAA) Biomarker Activity (AID 2283049);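 further: SAA protein level quantified by ELISA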
Details: primary human coronary artery smooth muscle cells; actives raise or lower the signal
Activity calls are given as the source filed them. How the source made its calls: active means hit-call score of the fitted dose curve at least 0.9, where 1 is the maximum; inactive means score below 0.9.
MEASUREMENT_KIND: outcome

O=C(NC(=O)c1c(F)cccc1F)Nc1ccc(OC(F)(F)C(F)OC(F)(F)F)c(Cl)c1 (stereo not drawn)    inactive
COC(=O)c1ccccc1S(=O)(=O)NC(=O)N(C)c1nc(C)nc(OC)n1    inactive
COP(=O)(OC)OC=C(Cl)Cl    inactive
